System: Toxoplasma gondii
procedure.summary: Anti-tachyzoite activity against RFP-expressing Toxoplasma gondii RH Type 1 infected in NHDF cells assessed as inhibition of parasite proliferation measured after 72 hrs by fluorescence plate reader
Type: functional
condition.context: RH Type 1, NHDF, read-out: ED50 (the source's name)
Parameter: EC50. Scope: all listed entries.

- molecule: "COc1ccc(Nc2ccc3ccc4cccnc4c3n2)cc1"
  uom: "nM"
  EC50: 310
- molecule: "N#Cc1cccc(Nc2ccc3ccc4cccnc4c3n2)c1"
  uom: "nM"
  EC50: 240
- molecule: "c1ccc(Nc2ccc3ccc4cccnc4c3n2)cc1"
  uom: "nM"
  EC50: 530
- molecule: "N#Cc1ccc(Nc2ccc3ccc4cccnc4c3n2)cc1"
  uom: "nM"
  EC50: 1060
- molecule: "c1cnc2c(c1)ccc1cccnc12 [PHENANTHROLINE]"
  uom: "nM"
  EC50: 2010
- molecule: "c1ccc2c(Nc3ccc4ccc5cccnc5c4n3)cccc2c1"
  uom: "nM"
  EC50: 240
- molecule: "Fc1ccc(Nc2ccc3ccc4cccnc4c3n2)cc1"
  uom: "nM"
  EC50: 250
- molecule: "Fc1cccc(Nc2ccc3ccc4cccnc4c3n2)c1"
  uom: "nM"
  EC50: 270
- molecule: "COc1cccc(Nc2ccc3ccc4cccnc4c3n2)c1"
  uom: "nM"
  EC50: 250
- molecule: "Clc1cccc(Nc2ccc3ccc4cccnc4c3n2)c1"
  uom: "nM"
  EC50: 360
